tested on: Saccharomyces cerevisiae; assay: protein stability index of tFT-peptide fusion (C-terminal peptide) (PSI (0-1 scale)); higher = more stable (slower turnover); conditions: genetic background: das1 deletion; temperature: 30 C
endpoint: protein stability index
One number for each entry.

Past entries and their recorded results:
INSERT INTO measurements (sequencerecord, systemundertest, endpoint, value) VALUES
  ('VAAKIAALAGQQ [RPL5 C-terminal 12 aa]', 'Saccharomyces cerevisiae', 'protein stability index', 0.708),
  ('LFYQTIGEFASL [ATF2 C-terminal 12 aa]', 'Saccharomyces cerevisiae', 'protein stability index', 0.706),
  ('ISVYCGTTLEVM [TFC8 C-terminal 12 aa]', 'Saccharomyces cerevisiae', 'protein stability index', 0.44),
  ('ALPNWNTPYLRR [UCC1 C-terminal 12 aa]', 'Saccharomyces cerevisiae', 'protein stability index', 0.719),
  ('LYVTVFNRSDEA [AVT7 C-terminal 12 aa]', 'Saccharomyces cerevisiae', 'protein stability index', 0.677),
  ('IDLFRDAYNHEN [UPS2 C-terminal 12 aa]', 'Saccharomyces cerevisiae', 'protein stability index', 0.735);

Required: protein stability index, one value per sequence below.
1. LSLTLVSIIKTA [COG2 C-terminal 12 aa]
2. QNADEESSSEEE [GCD6 C-terminal 12 aa]
3. NKLKTLLAKIFD [IPI1 C-terminal 12 aa]
4. FNVTKKSLTNHS [CDS1 C-terminal 12 aa]

Ans.
[0.618, 0.694, 0.708, 0.698]

Required: protein stability index, one value per sequence below.
1. LMILGNFMPILN [ERT1 C-terminal 12 aa]
2. YMMNSQSPRGKI [POM34 C-terminal 12 aa]
3. EKQYVKILDDTH [CSF1 C-terminal 12 aa]
4. NELRMSSSSLTN [VHS1 C-terminal 12 aa]
5. ISLVFLWVSIEV [CSM4 C-terminal 12 aa]

Ans.
1. 0.691
2. 0.71
3. 0.716
4. 0.672
5. 0.157

For the sequence CIISIVVFPTCI [BIO5 C-terminal 12 aa] , the measured protein stability index on Saccharomyces cerevisiae was 0.286

###

test system: Saccharomyces cerevisiae; assay: protein stability index of tFT-peptide fusion (C-terminal peptide) (PSI (0-1 scale)); higher = more stable (slower turnover); conditions: genetic background: cdc53-1; temperature: 37 C
endpoint: protein stability index
One number for each entry.

Past entries and their recorded results:
INSERT INTO results (sequencerecord, value) VALUES
  ('CCSRYLSNLCPI', 0.751),
  ('FALFLFFGPLIV', 0.486),
  ('PSPPPPRPASPS', 0.749),
  ('KAIILGNIKINF', 0.744),
  ('PSPPPPLPPHPS', 0.732);

Required: protein stability index, one value per sequence below.
1. VCLLFRFCCWFW
2. MALAVRVVTCGA
3. FELVWLCIIGAL
4. VFLVGFRVTLDS
5. VLPCSLVPLRLH
6. LQSVAFERGGPD
7. FSYFFIFFYMVC

Ans.
1: 0.357; 2: 0.297; 3: 0.507; 4: 0.289; 5: 0.704; 6: 0.736; 7: 0.257

###

Can you tell me protein stability index for the items I'm about to list?
system: Saccharomyces cerevisiae; experiment: protein stability index of tFT-peptide fusion (C-terminal peptide) (PSI (0-1 scale)); higher = more stable (slower turnover); conditions: genetic background: das1 deletion; temperature: 30 C
Answers are plain numbers.

INSERT INTO measurements (sequencerecord, endpoint, value) VALUES
  ('NQKKKFKMEFRG [SAP30 C-terminal 12 aa]', 'protein stability index', 0.696);

Required: protein stability index, one value per sequence below.
1. TPENNHLKWLIK [UGX2 C-terminal 12 aa]
2. SFCYVSACGRTQ [YFL021C-A C-terminal 12 aa]
3. VAQNPVLAAVIA [KAP123 C-terminal 12 aa]
4. NGRYIDTEFESM [LCB4 C-terminal 12 aa]

Ans.
1. 0.716
2. 0.677
3. 0.455
4. 0.685
